Biological target: E3 ubiquitin-protein ligase XIAP (Homo sapiens)
Assay: XIAP binders, primary screen, biophysical, small-molecule microarray, fluorescence 635 nm (AID 1181);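 also: score merges 667 nm emission and signal to noise over triplicate slides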
Conditions: small-molecule microarray binding, higher = more signal
Threshold check on composite z-score: at or above 0.06 gives 1.0, strictly below gives 0.0.

Q: composite z-score >= 0.06 for COC(=O)C[C@H]1O[C@]2(C(=O)N(C)c3ccccc32)[C@@H](C)[C@@H]1[Si](C)(C)c1ccccc1 ?
Ans: 1.0

Q: composite z-score >= 0.06 for O=C1O[C@@H](c2ccccc2)[C@@H](c2ccccc2)N2[C@@H](c3ccccc3OCCO)[C@]3(C(=O)Nc4ccc(C#CC5(O)CCCCCC5)cc43)[C@@H](C(=O)N3CCCCCCC3)[C@H]12 ?
Ans: 1.0

Q: composite z-score >= 0.06 for CCCCN1CC=CC23O[C@@H]4/C=C\CCC(C)OC(=O)C4[C@H]2C(=O)N(CCO)[C@@H]3C1=O (some centres not stated) ?
Ans: 0.0

Q: composite z-score >= 0.06 for [N-]=[N+]=NCc1ccccc1[C@H]1OC(c2ccc(OCCCO)cc2)=N[C@@]1(Cc1ccccc1N=[N+]=[N-])C(=O)O ?
Ans: 1.0

Q: composite z-score >= 0.06 for COCCCNC(=O)[C@@]1(c2ccc([N+](=O)[O-])cc2)CC(=O)N(C2CCCCC2)[C@@H]1c1ccc(CO)cc1I ?
Ans: 0.0

Q: composite z-score >= 0.06 for CCCC=C(CCC)[C@@H](NC(=O)c1ccc(C(=O)OC)cc1)c1ccc(C(=O)OC)cc1 ?
Ans: 1.0
